The values you see were collected from the supplement of paper PMC10567573.

Recorded protein stability index for the following variants
B1: SOAT1 (parent)
chain: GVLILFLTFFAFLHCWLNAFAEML

# Variants of: B1
# assay.protocol: protein stability index of a GFP-peptide fusion (GPS, HEK-293T) (PSI 1-6); higher = more stable;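 note: lentivirally expressed fusions sorted by FACS into six bins by GFP to DsRed ratio, PSI derived from sequencing read proportions per bin multiplied by bin number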
# condition.summary: c terminus: a fixed tail appended

# sequence.content, protein stability index
data = [
    ("GVLILFLTFFAFLHCWLTAFAEML [N18T]", 3),
    ("GVLILFLTFFAFLHCWLNAFAEMN [L24N]", 2.98),
    ("GVLILFLTFFAFLHCWLNAFALML [E22L]", 2.92),
]
